Listed compounds paired with reported pEC50
- systemUnderTest: human APJ receptor (Homo sapiens (Human))
- protocolNotes: biochemical
- measurementConditions: [35S]GTPγS binding, CHO membranes expressing human APJ receptor; read-out: Activity hAPJ SPA EC50 IP
Remember the convention: pEC50 equals -log10 of concentration in molar.

COc1cccc(OC)c1-n1c(NS(=O)(=O)[C@@H]2CCCN(c3ncc(F)cn3)C2)nnc1-c1ccn(C)n1 (single isomer, unassigned) [Example 262.0] = 8.32
COc1cccc(OC)c1-n1c(NS(=O)(=O)[C@H](C)Cc2ncc(F)cn2)nnc1-c1nc(C2CC2)cs1 (single isomer, unassigned) [Example 159.0] = 9.21
COc1cccc(OC)c1-n1c(NS(=O)(=O)[C@@H](C)[C@H](OC)c2ncc(C)cn2)nnc1-c1csc(C)n1 [Example 338.0] = 9.47
COc1cccc(OC)c1-n1c(NS(=O)(=O)[C@@H](C)[C@@H](OC(C)C)c2ncc(Cl)cn2)nnc1-c1cnn2c1CCC2 [Example 447.0] = 9.92
COc1cccc(OC)c1-n1c(NS(=O)(=O)[C@@H](C)[C@H](OC)c2ncc(C)cn2)nnc1-c1cc(C)on1 [Example 425.0] = 8.09
COc1cccc(OC)c1-n1c(NS(=O)(=O)[C@@H](C)[C@H](OC)c2ncc(C)cn2)nnc1-c1cc2n(n1)CCC2 [Example 205.0] = 8.52
COCC1(n2c(NS(=O)(=O)[C@@H](C)[C@H](OC)c3ncc(Cl)cn3)nnc2-c2cnn3ccccc23)CC1 [Example 509.0] = 8.39
COc1cccc(OC)c1-n1c(NS(=O)(=O)[C@@H](C)[C@H](OC)c2ncc(C)cn2)nnc1-c1cnc2[nH]ccc2n1 [Example 206.0] = 7.02

As a next step, examine the compound that follows.
Which pEC50 value belongs to COc1cccc(OC)c1-n1c(NS(=O)(=O)[C@@H](C)[C@H](C)c2ncc(F)cn2)nnc1-c1cc(C)[nH]n1 [Example 268.0] ?
9.17

====

- systemUnderTest: human APJ receptor (Homo sapiens (Human), UniProt P35414)
- Sequence (P35414 whole entry): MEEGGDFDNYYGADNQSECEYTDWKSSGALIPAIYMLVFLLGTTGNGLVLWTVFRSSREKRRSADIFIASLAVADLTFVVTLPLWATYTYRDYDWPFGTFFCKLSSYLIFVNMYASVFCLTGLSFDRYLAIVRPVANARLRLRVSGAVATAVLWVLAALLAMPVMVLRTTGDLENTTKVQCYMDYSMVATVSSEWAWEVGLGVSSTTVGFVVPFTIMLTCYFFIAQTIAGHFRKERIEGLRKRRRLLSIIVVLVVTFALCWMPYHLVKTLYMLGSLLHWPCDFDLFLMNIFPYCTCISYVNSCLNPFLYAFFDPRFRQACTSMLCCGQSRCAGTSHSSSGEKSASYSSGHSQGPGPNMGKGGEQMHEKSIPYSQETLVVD
- protocolNotes: biochemical
- measurementConditions: [35S]GTPγS binding, CHO membranes expressing human APJ receptor; read-out: Activity hAPJ SPA EC50 IP
Listed molecules paired with reported EC50
// return numeric value only (unit: pM, not printed)

COc1cccc(OC)c1-n1c(NS(=O)(=O)[C@H](C)[C@@H](C)c2ncc(Cl)cn2)nnc1-c1ccn(C)n1 [Example 443.0] = 6400

Which EC50 value belongs to COc1cccc(OC)c1-n1c(NS(=O)(=O)[C@@H](C)[C@H](OC)c2ncc(C)cn2)nnc1-c1cscn1 [Example 342.0] ?
500

Which EC50 value belongs to COc1cccc(OC)c1-n1c(NS(=O)(=O)[C@@H](C)[C@H](OC)c2ncc(C)cn2)nnc1-c1ncc(C)s1 [Example 331.0] ?
980

====

- systemUnderTest: human APJ receptor (Homo sapiens (Human))
- protocolNotes: biochemical
- measurementConditions: [35S]GTPγS binding, CHO membranes expressing human APJ receptor; read-out: Activity hAPJ SPA EC50 IP
outcomeMeasure: pEC50
Remember the convention: pEC50 equals -log10 of concentration in molar.

Identify the measured pEC50 of COc1cccc(OC)c1-n1c(NS(=O)(=O)[C@H](C)Cc2ncc(F)cn2)nnc1-c1nc(C)cs1 [Example 103.0] for human APJ receptor (Homo sapiens (Human)).
8.08

Identify the measured pEC50 of COc1ncnc(OC)c1-n1c(NS(=O)(=O)[C@@H](C)[C@H](C)c2ncc(Cl)cn2)nnc1-c1nn(C)c2ccc(C)cc12 [Example 433.0] for human APJ receptor (Homo sapiens (Human)).
9.08

Identify the measured pEC50 of COc1cccc(OC)c1-n1c(NS(=O)(=O)C[C@H](O)c2ccc(Cl)cc2)nnc1-c1ccn(C)n1 (single isomer, unassigned) [Example 375.0] for human APJ receptor (Homo sapiens (Human)).
8.23

Identify the measured pEC50 of COc1ncnc(OC)c1-n1c(NS(=O)(=O)[C@@H](C)[C@H](C)c2ccc(Cl)cn2)nnc1-c1ccn(C)n1 [Example 534.0] for human APJ receptor (Homo sapiens (Human)).
9.03

Identify the measured pEC50 of COc1cccc(OC)c1-n1c(NS(=O)(=O)[C@@H](C)[C@H](C)c2ncc(C)cn2)nnc1-c1cnn2c1CCC2 [Example 487.0] for human APJ receptor (Homo sapiens (Human)).
9.21

====

- systemUnderTest: human APJ receptor (Homo sapiens (Human), UniProt P35414)
- protocolNotes: biochemical
- measurementConditions: [35S]GTPγS binding, CHO membranes expressing human APJ receptor; read-out: Activity hAPJ SPA EC50 IP
Listed compounds paired with reported pEC50
Remember the convention: pEC50 equals -log10 of concentration in molar.

COc1cccc(OC)c1-n1c(NS(=O)(=O)C[C@H](OC)c2ccc(F)cc2S(C)(=O)=O)nnc1-c1ccn(C)n1 (single isomer, unassigned) [Example 373.0] = 8.89

Which pEC50 value belongs to COc1cccc(OC)c1-n1c(NS(=O)(=O)[C@@H](C)[C@H](OC)c2ncc(C)cn2)nnc1-c1coc(C)n1 ?
8.68

Which pEC50 value belongs to COc1cccc(OC)c1-n1c(NS(=O)(=O)[C@@H](C)[C@H](C)c2ncc(C#N)cn2)nnc1-c1cc2n(n1)CCC2 ?
8.70

Which pEC50 value belongs to COc1cccc(OC)c1-n1c(NS(=O)(=O)[C@@H](C)[C@H](C)c2ncc(F)cn2)nnc1-c1cncc(C)n1 ?
8.82

Which pEC50 value belongs to COc1ccc(N2CCC2=O)cc1-n1c(NS(=O)(=O)CCc2ccc(F)cc2)nnc1-c1cccs1 ?
8.46

Which pEC50 value belongs to COc1cccc(OC)c1-n1c(NS(=O)(=O)C[C@H](OC)c2ccc(Cl)cn2)nnc1-c1ccn(C)n1 (single isomer, unassigned) [Example 377.0] ?
9.22

Which pEC50 value belongs to COc1cncc(-c2nnc(NS(=O)(=O)[C@@H](C)[C@H](OC)c3cnc(C)cn3)n2-c2c(OC)cccc2OC)n1 ?
8.40

====

Listed compounds paired with reported pEC50
- systemUnderTest: human APJ receptor (Homo sapiens (Human))
- protocolNotes: biochemical
- measurementConditions: [35S]GTPγS binding, CHO membranes expressing human APJ receptor; read-out: Activity hAPJ SPA EC50 IP
Remember the convention: pEC50 equals -log10 of concentration in molar.

Some entries whose results are on file:
COc1ccc(N(C)C)cc1-n1c(NS(=O)(=O)CCc2ccc(Cl)cc2)nnc1-c1cccs1 = 7.96
CCc1csc(-c2nnc(NS(=O)(=O)[C@H](C)Cc3ncc(F)cn3)n2-c2c(OC)cccc2OC)n1 (single isomer, unassigned) [Example 105.0] = 8.85
COc1cccc(OC)c1-n1c(NS(=O)(=O)[C@@H](C)[C@H](C)c2ncc(C)cn2)nnc1-c1cc2n(n1)CCC2 = 8.77
COc1cccc(OC)c1-n1c(NS(=O)(=O)[C@@H](C)Cc2ncc(C)cn2)nnc1-c1nc(C)cs1 (single isomer, unassigned) [Example 9.0] = 7.96
CCn1ccc(-c2nnc(NS(=O)(=O)[C@@H](C)[C@H](OC)c3ncc(F)cn3)n2-c2c(OC)cccc2OC)n1 = 8.92

Identify the measured pEC50 of COc1cnc([C@@H](C)[C@@H](C)S(=O)(=O)Nc2nnc(-c3ccn(C)n3)n2-c2c(OC)ncnc2OC)nc1 for human APJ receptor (Homo sapiens (Human)).
9.00

Identify the measured pEC50 of COc1cccc(OC)c1-n1c(NS(=O)(=O)[C@H](C)[C@@H](C)c2ncc(C)cn2)nnc1-c1n[nH]c2ccccc12 for human APJ receptor (Homo sapiens (Human)).
7.85

Identify the measured pEC50 of COc1cccc(OC)c1-n1c(NS(=O)(=O)[C@@H](C)[C@H](OC)c2ncc(C)cn2)nnc1-c1cc(C)[nH]n1 for human APJ receptor (Homo sapiens (Human)).
8.82

Identify the measured pEC50 of COc1cccc(OC)c1-n1c(NS(=O)(=O)[C@@H](C)[C@H](O)c2ncc(C)cn2)nnc1-c1cc2n(n1)CCC2 for human APJ receptor (Homo sapiens (Human)).
8.18

Identify the measured pEC50 of COc1cccc(OC)c1-n1c(NS(=O)(=O)[C@H](C)[C@@H](OC)c2ncc(F)cn2)nnc1-c1ccn(C)n1 (single isomer, unassigned) [Example 117.0] for human APJ receptor (Homo sapiens (Human)).
9.16

====

Listed compounds paired with reported EC50
- systemUnderTest: UniProtKB P35414
- protocolNotes: biochemical
- measurementConditions: [35S]GTPγS binding, CHO membranes expressing human APJ receptor; read-out: Activity hAPJ SPA EC50 IP
Answer with the figure and its unit, nothing else.

Some entries whose results are on file:
COc1ncnc(OC)c1-n1c(NS(=O)(=O)[C@@H](C)[C@H](C)c2ncc(Cl)cn2)nnc1-c1cnn2ccccc12 = 0.96 nM
COc1cccc(OC)c1-n1c(NS(=O)(=O)[C@H](C)Cc2ncc(F)cn2)nnc1-c1nc(C2CC2)cs1 [Example 161.0] = 3.8 nM
COc1cccc(OC)c1-n1c(NS(=O)(=O)[C@H](C)Cc2ncc(F)cn2)nnc1-c1nc(C)cs1 [Example 100.0] = 3 nM

As a next step, examine the compound that follows.
Which EC50 value belongs to CCO[C@@H](c1ncc(Cl)cn1)[C@H](C)S(=O)(=O)Nc1nnc(-c2ccn(C)n2)n1-c1c(OC)cccc1OC (single isomer, unassigned) [Example 353.0] ?
0.22 nM
